# ASSAY SYSTEM: T1, recombinant human melanocortin-4 receptor (hMCR-4) in membrane homogenates of HEK-293 cells (human, UniProt P32245 1-332)
# T1 construct: whole, on cells; Used as membrane homogenates, not intact cells; also called MC-4
# T1 sequence (P32245 whole entry): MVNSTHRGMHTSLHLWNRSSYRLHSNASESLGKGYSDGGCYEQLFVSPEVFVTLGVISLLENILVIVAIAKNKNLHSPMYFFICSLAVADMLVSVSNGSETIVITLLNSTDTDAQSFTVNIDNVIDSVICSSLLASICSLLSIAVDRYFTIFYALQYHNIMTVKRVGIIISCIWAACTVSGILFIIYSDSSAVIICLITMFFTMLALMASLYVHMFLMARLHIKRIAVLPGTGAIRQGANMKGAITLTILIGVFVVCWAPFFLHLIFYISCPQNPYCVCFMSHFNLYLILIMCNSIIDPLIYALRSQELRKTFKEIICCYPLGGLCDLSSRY
# PROTOCOL DETAILS: competitive inhibition of [I125]-NDP-alpha-MSH, hMCR-4 HEK-293 membranes
[ ]: non-standard residue; d: D form. Nle = CCCC[C@H](N)C(=O)O
OBSERVATION TYPE: pKi
Give only the number. pKi is defined as minus log10 of concentration in molar units.

In plain terms, Ac-[Nle]AH[dF]RPW-NH2 (SMILES CCCC[C@H](NC(C)=O)C(=O)N[C@@H](C)C(=O)N[C@@H](Cc1c[nH]cn1)C(=O)N[C@H](Cc1ccccc1)C(=O)N[C@@H](CCCNC(=N)N)C(=O)N1CCC[C@H]1C(=O)N[C@@H](Cc1c[nH]c2ccccc12)C(N)=O, synthetic linear peptide) [Ac-Nle-Ala-His-D-Phe-Arg-Pro-Trp-NH2] has a documented pKi of 7.70

In plain terms, Ac-[Nle]AR[dF]RAW-NH2 (SMILES CCCC[C@H](NC(C)=O)C(=O)N[C@@H](C)C(=O)N[C@@H](CCCNC(=N)N)C(=O)N[C@H](Cc1ccccc1)C(=O)N[C@@H](CCCNC(=N)N)C(=O)N[C@@H](C)C(=O)N[C@@H](Cc1c[nH]c2ccccc12)C(N)=O, synthetic linear peptide) [Ac-Nle-Ala-Arg-D-Phe-Arg-Ala-Trp-NH2] has a documented pKi of 5.93

In plain terms, Ac-[Nle]AH[dF]AAW-NH2 (SMILES CCCC[C@H](NC(C)=O)C(=O)N[C@@H](C)C(=O)N[C@@H](Cc1c[nH]cn1)C(=O)N[C@H](Cc1ccccc1)C(=O)N[C@@H](C)C(=O)N[C@@H](C)C(=O)N[C@@H](Cc1c[nH]c2ccccc12)C(N)=O, synthetic linear peptide) [Ac-Nle-Ala-His-D-Phe-Ala-Ala-Trp-NH2] has a documented pKi of 5.00

In plain terms, Ac-[Nle]AHFRAW-NH2 (SMILES CCCC[C@H](NC(C)=O)C(=O)N[C@@H](C)C(=O)N[C@@H](Cc1c[nH]cn1)C(=O)N[C@@H](Cc1ccccc1)C(=O)N[C@@H](CCCNC(=N)N)C(=O)N[C@@H](C)C(=O)N[C@@H](Cc1c[nH]c2ccccc12)C(N)=O, synthetic linear peptide) [Ac-Nle-Ala-His-Phe-Arg-Ala-Trp-NH2] has a documented pKi of 5.00

In plain terms, Ac-[Nle]AF[dF]RAW-NH2 (SMILES CCCC[C@H](NC(C)=O)C(=O)N[C@@H](C)C(=O)N[C@@H](Cc1ccccc1)C(=O)N[C@H](Cc1ccccc1)C(=O)N[C@@H](CCCNC(=N)N)C(=O)N[C@@H](C)C(=O)N[C@@H](Cc1c[nH]c2ccccc12)C(N)=O, synthetic linear peptide) [Ac-Nle-Ala-Phe-D-Phe-Arg-Ala-Trp-NH2] has a documented pKi of 5.79

In plain terms, Ac-[Nle]AA[dF]RAW-NH2 (SMILES CCCC[C@H](NC(C)=O)C(=O)N[C@@H](C)C(=O)N[C@@H](C)C(=O)N[C@H](Cc1ccccc1)C(=O)N[C@@H](CCCNC(=N)N)C(=O)N[C@@H](C)C(=O)N[C@@H](Cc1c[nH]c2ccccc12)C(N)=O, synthetic linear peptide) [Ac-Nle-Ala-Ala-D-Phe-Arg-Ala-Trp-NH2] has a documented pKi of 5.00

In plain terms, Ac-[Nle]AK[dF]RAW-NH2 (SMILES CCCC[C@H](NC(C)=O)C(=O)N[C@@H](C)C(=O)N[C@@H](CCCCN)C(=O)N[C@H](Cc1ccccc1)C(=O)N[C@@H](CCCNC(=N)N)C(=O)N[C@@H](C)C(=O)N[C@@H](Cc1c[nH]c2ccccc12)C(N)=O, synthetic linear peptide) [Ac-Nle-Ala-Lys-D-Phe-Arg-Ala-Trp-NH2] has a documented pKi of 5.00

In plain terms, Ac-[Nle]AHFRGW-NH2 (SMILES CCCC[C@H](NC(C)=O)C(=O)N[C@@H](C)C(=O)N[C@@H](Cc1c[nH]cn1)C(=O)N[C@@H](Cc1ccccc1)C(=O)N[C@@H](CCCNC(=N)N)C(=O)NCC(=O)N[C@@H](Cc1c[nH]c2ccccc12)C(N)=O, synthetic linear peptide) [Ac-Nle-Ala-His-Phe-Arg-Gly-Trp-NH2] has a documented pKi of 5.00

In plain terms, Ac-[Nle]AH[dF]RAW-OH (SMILES CCCC[C@H](NC(C)=O)C(=O)N[C@@H](C)C(=O)N[C@@H](Cc1c[nH]cn1)C(=O)N[C@H](Cc1ccccc1)C(=O)N[C@@H](CCCNC(=N)N)C(=O)N[C@@H](C)C(=O)N[C@@H](Cc1c[nH]c2ccccc12)C(=O)O, synthetic linear peptide) [Ac-Nle-Ala-His-D-Phe-Arg-Ala-Trp-OH] has a documented pKi of 5.13

In plain terms, Ac-[Nle]AH[dF]RAW-NH2 (SMILES CCCC[C@H](NC(C)=O)C(=O)N[C@@H](C)C(=O)N[C@@H](Cc1c[nH]cn1)C(=O)N[C@H](Cc1ccccc1)C(=O)N[C@@H](CCCNC(=N)N)C(=O)N[C@@H](C)C(=O)N[C@@H](Cc1c[nH]c2ccccc12)C(N)=O, synthetic linear peptide) [Ac-Nle-Ala-His-D-Phe-Arg-Ala-Trp-NH2] has a documented pKi of 5.76

In plain terms, Ac-[Nle]HFRAW-NH2 (SMILES CCCC[C@H](NC(C)=O)C(=O)N[C@@H](Cc1c[nH]cn1)C(=O)N[C@@H](Cc1ccccc1)C(=O)N[C@@H](CCCNC(=N)N)C(=O)N[C@@H](C)C(=O)N[C@@H](Cc1c[nH]c2ccccc12)C(N)=O, synthetic linear peptide) [Ac-Nle-His-Phe-Arg-Ala-Trp-NH2] has a documented pKi of 5.00

In plain terms, Ac-[Nle]AH[dF]RGW-NH2 (SMILES CCCC[C@H](NC(C)=O)C(=O)N[C@@H](C)C(=O)N[C@@H](Cc1c[nH]cn1)C(=O)N[C@H](Cc1ccccc1)C(=O)N[C@@H](CCCNC(=N)N)C(=O)NCC(=O)N[C@@H](Cc1c[nH]c2ccccc12)C(N)=O, synthetic linear peptide) [Ac-Nle-Ala-His-D-Phe-Arg-Gly-Trp-NH2] has a documented pKi of 6.05

In plain terms, Ac-[Nle]A[dF]RAW-NH2 (SMILES CCCC[C@H](NC(C)=O)C(=O)N[C@@H](C)C(=O)N[C@H](Cc1ccccc1)C(=O)N[C@@H](CCCNC(=N)N)C(=O)N[C@@H](C)C(=O)N[C@@H](Cc1c[nH]c2ccccc12)C(N)=O, synthetic linear peptide) [Ac-Nle-Ala-D-Phe-Arg-Ala-Trp-NH2] has a documented pKi of 5.00

In plain terms, Ac-[Nle]H[dF]RAW-NH2 (SMILES CCCC[C@H](NC(C)=O)C(=O)N[C@@H](Cc1c[nH]cn1)C(=O)N[C@H](Cc1ccccc1)C(=O)N[C@@H](CCCNC(=N)N)C(=O)N[C@@H](C)C(=O)N[C@@H](Cc1c[nH]c2ccccc12)C(N)=O, synthetic linear peptide) [Ac-Nle-His-D-Phe-Arg-Ala-Trp-NH2] has a documented pKi of 5.47
